meta.source: BindingDB's records for doi:10.1016/S0960-894X(00)80068-2

- MEASUREMENT_NOTES: Binding affinity for Sigma opioid receptor type 1 in guinea pig brain homogenate with 0.5 nM [3H](+)-PENT
READOUT_NAME: Ki (nM)

Example cases with answers are listed next.
COMPOUND_STRUCTURE_STRING: O=C1NC(c2ccccc2)(c2ccccc2)C(=O)N1CCCN1CCC(c2ccccc2)CC1
Ki / nM: 22

COMPOUND_STRUCTURE_STRING: O=C1NC(c2ccccc2)(c2ccccc2)C(=O)N1CCCCCN1CCN(c2ccccc2)CC1
Ki / nM: 19

(I) O=C1NC(c2ccccc2)(c2ccccc2)C(=O)N1CCN1CCC(c2ccccc2)CC1
(II) O=C1NC(c2ccccc2)(c2ccccc2)C(=O)N1CCCCN1CCN(c2ccccc2)CC1
Endpoint returns the identifier whose Ki is numerically larger, either I or II . Answer format: the label of the selected item. II
(II: 328 nM, I: 17 nM)

###

- TEST_TARGET: Sigma intracellular receptor 2 (Cavia porcellus)
- MEASUREMENT_NOTES: Binding affinity for Sigma opioid receptor type 2 in guinea pig brain homogenate with 4 nM [3H]-(+)-DTG
READOUT_NAME: Ki (µM)

Example cases with answers are listed next.
COMPOUND_STRUCTURE_STRING: O=C1NC(c2ccccc2)(c2ccccc2)C(=O)N1CCCCN1CCN(c2ccccc2)CC1
READOUT_NAME: Ki
OBSERVED: 0.049

COMPOUND_STRUCTURE_STRING: O=C1NC(c2ccccc2)(c2ccccc2)C(=O)N1CCCCCN1CCN(c2ccccc2)CC1
READOUT_NAME: Ki
OBSERVED: 0.019

(A) O=C1NC(c2ccccc2)(c2ccccc2)C(=O)N1CCCN1CCC(c2ccccc2)CC1
(B) O=C1NC(c2ccccc2)(c2ccccc2)C(=O)N1CCN1CCC(c2ccccc2)CC1
Between the entries labeled A and B , whose measured Ki is lower? Answer format: the label of the selected item. A
